System: TK-10 renal
Experiment: NCI-60 one-dose screen, 48 h
Conditions: 10 µM unless noted
Compounds without any hit were thinned out: in the full panel of roughly 83,000, 20% have a hit. Active and inactive are the calls of the source. How the source made its calls: active means growth percent below 10; inactive means the rest.
Classes used: YES = active, NO = inactive

* CNC12C3C4C1C1C2C3C41C(=O)N[C@H](C(=O)N(C)[C@H](C[C@@H](OC(C)=O)c1nc(C(=O)N[C@@H](Cc2ccccc2)C[C@H](C)C(=O)OC)cs1)C(C)C)C1CC1 (stereo partly specified) | NO
* Brc1ccc2c(c1)c(-c1nc(-c3c[nH]c4ncccc34)cs1)cn2CCN1CCOCC1 | NO
* NC(=O)CNc1ccc([As]=[As]c2ccc(NCC(N)=O)cc2)cc1 (stereo unspecified) | NO
* C/C=C(\C)C(=O)O[C@@H]1C(O)[C@H]2OC(COC(=O)CCC(=O)CCCCCC[C@H](CCCCC)O[C@@H]3OC(C)[C@H](OC(C)=O)C(O)[C@H]3O2)[C@H]1OC(=O)/C=C/c1ccccc1 (stereo partly specified) | NO
* C[C@]12CCc3nc(Nc4ccccc4F)sc3C1=CC[C@@H]1[C@@H]2CC[C@]2(C)C(=O)CC[C@@H]12 | NO
* COC(=O)[C@@H](C)C[C@H](Cc1cn(C)c2ccccc12)NC(=O)c1csc([C@@H](C[C@H](C(C)C)N(C)C(=O)[C@@H](NC(=O)[C@H]2CCCCN2C)C(C)C)OC(C)=O)n1 | NO
* c1ccc(COc2ccc3[nH]cc(CCN(Cc4ccccc4)Cc4ccccc4)c3c2)cc1 | NO
* Cc1c(O)c(CN(CCCl)CCCl)cc(CN(CCCl)CCCl)c1O | NO
* CC12CC(=O)C3(SC#N)C(CCC4=CC(=O)CCC43C)C1CCC2=O (stereo unspecified) | NO
* CCOC(=O)[C@@H](C)C[C@H](Cc1ccccc1)NC(=O)c1csc([C@@H](C[C@H](C(C)C)N(C)C(=O)[C@H](CCC(C)C)NC(=O)[C@H]2CCCCN2C)OC(C)=O)n1 | YES
* C[C@]12CCc3sc(-c4ccccc4O)nc3C1=CC[C@@H]1[C@@H]2CC[C@]2(C)C(=O)CC[C@@H]12 | NO
* Cn1cc(-c2csc(-c3cn(CCN4CCOCC4)c4ccc(F)cc34)n2)c2cccnc21 | NO
* COc1ccc(/C=C/c2cc(OC)c(OC)c(OC)c2)cc1NC(=O)/C=C/c1ccc(F)cc1 | NO
* O=C1CC2(CC3(Cl)C(Cl)=C(Cl)C2(Cl)C3(Cl)Cl)C(=O)O1 (stereo unspecified) | NO
* Cc1ccc(N2COOC3(OOC2)C2CC4CC(C2)CC3C4)cc1 | NO
* COc1ccc(Nc2ccnc3cc(Cl)ccc23)cc1CN(CCCl)CCCl | YES

----------
Test system: UACC-62 melanoma
Test: NCI-60 one-dose screen, 48 h (100 = growth as untreated, 0 = no growth, -100 = all killed)
Conditions: 10 µM unless noted
Experimental: Growth inhibition of the UACC-62 human tumor cell line is measured as a screen for anti-cancer activity. Cells are grown in 96 well plates and exposed to the test compound for 48 hours. Compounds are tested at a single concentration, which is 10^-5 M for most compounds. The reported endpoint is percent growth (GI% or GIPRCNT), where numbers from 0 - 100% represent growth inhibition, and numbers from -100% - 0 represent cell death. For example, a value of 40 represents 60% growth inhibition. […]
Compounds without any hit were thinned out: in the full panel of roughly 83,000, 20% have a hit.
Quick rule for you: growth under 60% gets yes (1), anything else gets no (0).

• O=C1C2C(C(=O)[N]1[Hg][c]1ccccc1)C1(Cl)C(Cl)=C(Cl)C2(Cl)C1(Cl)Cl (stereo not given) = yes (1)
• [Au+].[N-]=C=O.c1ccc(CN2[CH-]N(Cc3ccccc3)C(c3ccccc3)=C2c2ccccc2)cc1 = no (0)
• Cc1ccccc1NC(=NCCCN1CC1)Nc1ccccc1C = no (0)
• COc1cc2c(cc1OCCCn1c(-c3ccccn3)nc3ccccc31)N=C[C@@H]1CCCN1C2=O = yes (1)
• O=C(c1ccccc1O)c1[nH]c(Cl)c(Cl)c1-n1c(C(=O)c2ccccc2O)cc(Cl)c1Cl = yes (1)
• CCc1ccccc1[C@@H]1C[C@]2(C)CCO[C@@H]2OO1 = no (0)
• CO[C@H]1CC[C@@]2(C)C(=CC[C@@H]3[C@@H]2CC[C@]2(C)C(=O)C(=O)C[C@@H]32)C1 = no (0)
• CC(=O)c1ccc(C(=O)NCC2CCC3(CC2)OOC2(CCCCC2)OO3)cc1 = no (0)
• Cn1cc(C=O)c2nccnc21 = no (0)
• O=C(CC1(O)C(=O)N(Cc2ccccc2)c2ccccc21)c1ccc(C(=O)NCC2CCC3(CC2)OOC2(CCCCC2)OO3)cc1 (stereo not given) = yes (1)
• CCn1c2ccccc2c2cc(C(=O)c3cccc4c3CCCN4)ccc21 = no (0)
• CC1=C(CNO)C2=C(C)C3(CC3)[C@@](C)(O)C(=O)C2=C1 = yes (1)
• COc1ccc(/C=C\c2cc(OC)c(OC)c(OC)c2)cc1NC(=O)/C=C/c1ccc(OC)c(OC)c1 = yes (1)
• CC(C)CCC1(CCCl)C(=O)NC(=O)NC1=O = no (0)
• N/C(=N\N=C\c1ccc(-c2ccccc2)cc1)N[N+](=O)[O-] = yes (1)
• O=C1NC(=O)C(=Cc2cn(CCCCCCn3c4ccccc4c(=O)c4ccccc43)c3ccccc23)C(=O)N1 = no (0)
• [Cl][Hg][n]1c(-c2ccco2)nc2ccccc21 = no (0)
• CC[C@]12C=CCN3CC[C@@]4(c5ccc(OC)cc5N(C)[C@H]4[C@@](O)(C(=O)OC)[C@@H]1OC(=O)CCCC[P+](c1ccccc1)(c1ccccc1)c1ccccc1)[C@@H]32 = yes (1)
• CCCc1cc(O)c2c3c(c(=O)oc2c1)CN(C)CC3 = yes (1)
• CSc1nc(Cl)cc(N2CC2)n1 = no (0)
• Cn1cccc1C1CC(=O)N(CCC[Se]C#N)C1=O (stereo not given) = yes (1)
• CCCCCN(CCCCC)CC(O)c1cc(Cl)ccc1OC (stereo not given) = no (0)
• Fc1ccc(C2=CCNCC2)cc1 = no (0)
• C#Cc1ccc2c(c1)C(c1ccccc1F)=NCC(=O)N2C = yes (1)
• COc1ccc(/C(C)=C(\c2ccc(OCCN3CCOCC3)cc2)c2ccc(OC(=O)Cc3ccccc3)cc2)cc1 = no (0)
• Cn1cc(C2=C(c3cn(C4CCN(Cc5ccccn5)CC4)c4ccccc34)C(=O)NC2=O)c2ccccc21 = yes (1)
• O=C([O][Hg][CH2]C1COCC([CH2][Hg][O]C(=O)c2ccccc2)O1)c1ccccc1 (stereo not given) = no (0)
• CCn1cnc2c(Nc3cccc(Cl)c3)nc(N[C@@H]3CCCC[C@@H]3N)nc21 = yes (1)
• C=C1[C@@H](C)[C@H]2[C@H](Cc3ccccc3)NC(=O)[C@]23[C@@H](O)/C=C/[C@@](C)(O)C(=O)[C@@H](C)C/C=C/[C@H]3[C@@H]1O = no (0)
• N#CC1(c2ccccc2)CCN(Cc2ccccc2)CC1 = no (0)
• CC1(C)CN1P(=O)(N1CC1(C)C)N1CC1(C)C (stereo not given) = no (0)
• CN(CCCCN(C)CCOS(C)(=O)=O)CCOS(C)(=O)=O = yes (1)
• CCN(CC)CCOC(=O)C(OC(C)C)(c1ccccc1)c1ccccc1 = no (0)
• O=c1[nH]cc(N(CCCl)CCCl)c(=O)[nH]1 = no (0)
• COc1ccc(C(=O)c2sc3nc4c(cc3c2N)N2CCC4CC2)cc1OC = no (0)
• O=[N+]([O-])c1c(Br)sc(Br)c1[N+](=O)[O-] = yes (1)
• C#C[C@]1(OC(=O)CCCCCC)CC[C@H]2[C@@H]3CCC4=CC(=O)CC[C@@H]4[C@H]3CC[C@@]21C = yes (1)
• C[C@@H]1C[C@@]2(C)[C@@H](CC[C@@H]3[C@@H]2CC[C@]2(C)C(=O)CC[C@@H]32)CC1=O = no (0)
• Cc1cc(NC(=O)NCc2ccc(N3C(N)=NC(N)=NC3(C)C)cc2)ccc1S(=O)(=O)F = yes (1)
• CN[C@@]1(c2ccccc2Cl)CCCC[C@@H]1NCC1CCCO1 (stereo not given in full) = no (0)

----------
Tested on: OVCAR-8 ovarian
Assay: NCI-60 one-dose screen, 48 h
Conditions: 10 µM unless noted
This is part of a sample that, as a whole, favours compounds with a hit. Of some 83,000 tested, about 20% had one in any assay. Active and inactive are the calls of the source. Rule for the calls: active = growth percent below 10; inactive = the rest.
Classes used: Yes (active), No (inactive)

• COC(=O)[C@@H](C)C[C@H](Cc1ccccc1)NC(=O)c1nc([C@@H](C[C@H](C(C)C)N(C)C(=O)[C@@H](NC(=O)[C@H]2C[C@H](O)CCN2C)C(C)C)OC(C)=O)sc1C(C)C = No
• O=C(N/N=C\c1ccc(N(CCCl)CCCl)cc1Cl)c1cccnc1 = No
• CCCCCCCCCCCCCCCCCCOc1ccccc1COP(=O)(O)OOCC[N+](C)(C)C = Yes
• CCOC(=O)c1c(C)n(Cc2ccccc2)c2cc(CN(C)C)c(O)cc12 = No
• CCOc1ccc(/C=C/[N+](=O)[O-])cc1 = No
• CC1=C(CCCNS(C)(=O)=O)C2=C(C)C3(CC3)[C@@](C)(O)C(=O)C2=C1 = Yes
• CC1(C)N=C(N)N=C(N)N1c1ccc(CCC(=O)Nc2ccc(S(=O)(=O)F)cc2)c(Cl)c1 = Yes
• C=C(C)[C@@]12OC3(/C=C/C=C/CCCCC)O[C@@H]1[C@@H]1[C@@H]4O[C@]4(CO)[C@@H](O)[C@]4(O)C(=O)C(C)=C[C@H]4[C@@]1(O3)[C@H](C)[C@H]2OC(=O)c1ccccc1 = No

Reference for the values: PubChem BioAssay (NCI)
